target: Recombinant human BACE-1 (Homo sapiens (Human), UniProt P56817); assay: Assay of β-secretase-inhibiting activity; details: substrate peptide 18 nM, BACE-1 7.4 nM, sodium acetate buffer pH 5.0, 30° C. for 3 hours
Sequence (P56817 46-501): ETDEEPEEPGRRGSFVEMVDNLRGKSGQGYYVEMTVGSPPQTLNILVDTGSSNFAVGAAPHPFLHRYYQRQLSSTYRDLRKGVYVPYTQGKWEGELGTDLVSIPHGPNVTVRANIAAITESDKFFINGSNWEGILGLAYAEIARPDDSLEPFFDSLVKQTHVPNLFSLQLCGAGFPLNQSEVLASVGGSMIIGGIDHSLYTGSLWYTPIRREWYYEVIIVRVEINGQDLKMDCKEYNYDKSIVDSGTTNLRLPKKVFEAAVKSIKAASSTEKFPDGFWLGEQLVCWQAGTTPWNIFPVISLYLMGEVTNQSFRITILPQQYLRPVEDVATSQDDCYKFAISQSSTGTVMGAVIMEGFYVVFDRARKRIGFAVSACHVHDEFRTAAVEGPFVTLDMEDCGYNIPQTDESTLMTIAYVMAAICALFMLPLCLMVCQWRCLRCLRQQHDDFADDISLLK
QUANTITY_NAME: IC50

Query: Could you tell me which IC50 is on file for CC1(C)C[C@@](C)(c2cncc(NC(=O)c3ccc(Cl)cn3)c2)N=C(N)S1 [Compound 604] ?
Result: ≤ 1 µM
